test_method_notes: CREB reporter modulators without forskolin, primary screen, cell-based, PC12, CRE-LacZ reporter, unstimulated (AID 1145)
condition_description: no forskolin, luminescence, 4.5 h, higher = more signal, called active from +8 up or from −8 down
z-score of -0.1 or higher: T. Under -0.1: F.

A selection of reference data follows.
| compound | class_assignment |
| --- | --- |
| CN1CCC(CCCO)=CC1C1CC1 (stereo unspecified) | F |
| COc1cccc([C@H]2N[C@H](C(=O)O)CC[C@@H]2C)c1 | F |
| CC(C)C[C@@H]1NC(=O)[C@H](CC(C)C)NC(=O)[C@@]23C(=O)N[C@@H](Cc4ccccc4)C2[C@H](C)[C@@]2(C)O[C@H]2C3/C=C/CC/C=C/CNC1=O (stereo partly specified) | T |
| CC(C)[Si](OCC[C@H]1O[C@]2(C(=O)N(Cc3ccccc3)c3ccccc32)[C@@H](C)[C@@H]1[Si](C)(C)O)(C(C)C)C(C)C | T |
| O=C1c2ccccc2[C@@]2(Cc3ccccc3N(CC(F)(F)F)C2=O)[C@H](c2ccc(CO)cc2)N1C1CCCCC1 | F |

Then this compound:
-- ask For this compound, is measured z-score -0.1 or higher? `COC(=O)[C@@]1(Cc2ccccc2CN=[N+]=[N-])N=C(c2ccc(OCCCO)cc2)O[C@H]1c1ccccc1N=[N+]=[N-]`
-- reply T
